The compounds listed here are annotated with their cytotoxicity at 10 µM.
- METHOD DESCRIPTION: Toxicity liver stage against HepG2, at 10uM
- Assay type: cell-based
- Parameters: test concentration 10 uM, cell line HepG2-A16-CD81EGFP
- EXPERIMENTAL PARAMETERS: human, HepG2-A16-CD81EGFP cells; read-out: INHIBITION

{"COMPOUND": "Cc1n[nH]c(C)c1CCCNCc1cn(CCC(N)=O)c2ccccc12", "cytotoxicity at 10 µM, %": 8.45}
{"COMPOUND": "CCOCC1CN(Cc2cnn(C)c2)Cc2c1cnn2CC (centres undefined)", "cytotoxicity at 10 µM, %": -83.4}
{"COMPOUND": "Cc1ccc(C(=O)NC2CCN(C(=O)Nc3ccccn3)CC2)o1", "cytotoxicity at 10 µM, %": 4.86}
{"COMPOUND": "CN(C)CCOCC1CN(Cc2ccc(F)cc2)Cc2nnn(C)c21 (centres undefined)", "cytotoxicity at 10 µM, %": 4.59}
{"COMPOUND": "Cc1cnn(CC(C)NCc2ccc(OCc3nccn3C)cc2)c1 (centres undefined)", "cytotoxicity at 10 µM, %": -10.7}
{"COMPOUND": "COCCNc1ccc(-c2noc([C@@H]3CCCN3)n2)cn1", "cytotoxicity at 10 µM, %": -1.57}
{"COMPOUND": "O=C(c1ccc(-n2cccn2)nc1)N1CCC(c2ccn[nH]2)C1 (centres undefined)", "cytotoxicity at 10 µM, %": -0.399}
{"COMPOUND": "CCCc1cc(C(=O)NCCCn2nnc3ccccc32)no1", "cytotoxicity at 10 µM, %": -12.5}
{"COMPOUND": "O=C1NC2(CCN(C(=O)CN3CCOCC3)CC2)Nc2ccc(Cl)cc21", "cytotoxicity at 10 µM, %": 0.961}
{"COMPOUND": "COc1c(CNCCc2c[nH]c3ccccc23)c(C)nn1C", "cytotoxicity at 10 µM, %": 15}
{"COMPOUND": "Cn1nc(C#N)c2c1CN(C(=O)c1c[nH]cn1)CCC2", "cytotoxicity at 10 µM, %": -122}
{"COMPOUND": "CCOC(=O)N1CCc2ccccc2C12CCNCC2", "cytotoxicity at 10 µM, %": 1.15}
{"COMPOUND": "Cc1cn2cc(-c3nc4c([nH]3)CCCNC4=O)nc2s1", "cytotoxicity at 10 µM, %": 5.48}
{"COMPOUND": "O=C(CCNC(=O)c1ccoc1)Nc1cccc(F)c1", "cytotoxicity at 10 µM, %": -8.63}
{"COMPOUND": "Cc1cccc(N(CCC#N)S(=O)(=O)CC2CCCCO2)c1 (centres undefined)", "cytotoxicity at 10 µM, %": 6.48}
{"COMPOUND": "O=C(NCc1ccco1)N(CCCO)C1CCCc2ccccc21 (centres undefined)", "cytotoxicity at 10 µM, %": -9.53}
{"COMPOUND": "Cc1ccccc1CN1CCNC(=O)C1CC(=O)NCC1CCCCC1 (centres undefined)", "cytotoxicity at 10 µM, %": -8.77}
{"COMPOUND": "CCc1ccc(C(=O)NC2CCN(c3ccn(C)n3)C2)o1 (centres undefined)", "cytotoxicity at 10 µM, %": -0.577}
{"COMPOUND": "CN(C)C(=O)CO[C@@H]1CN(Cc2ccccc2F)[C@@H]2CCCO[C@@H]21", "cytotoxicity at 10 µM, %": -3.81}
{"COMPOUND": "CC(C)c1nc(COc2cccc3c2NC(=O)CO3)cs1", "cytotoxicity at 10 µM, %": 35.8}
{"COMPOUND": "CCN(C)S(=O)(=O)NCC(O)c1c(Cl)cccc1Cl (centres undefined)", "cytotoxicity at 10 µM, %": 8.17}
{"COMPOUND": "CN1CCCc2ccc(S(=O)(=O)NC(=O)C3CC=CC3)cc21", "cytotoxicity at 10 µM, %": 2.84}
{"COMPOUND": "Cc1ncc(C(=O)N2CCC(N3C[C@@H](C)O[C@@H](C)C3)CC2)c(=O)[nH]1", "cytotoxicity at 10 µM, %": 3.42}
{"COMPOUND": "COc1ccc(OC)c(-c2cc(C(=O)NCC3(CO)CC3)n(C)n2)c1", "cytotoxicity at 10 µM, %": -2.46}
